Listed here are compounds together with their documented log10 of TGI.
system: SF-539 CNS; test: NCI tumour cell line growth inhibition, 48 h
test.readout: log10 of TGI (log10 of the value in µM)

compound	log10 of TGI
C=CCc1c2c(c(OC)c3ccoc13)C(=O)/C(=C/c1ccccc1OC)O2	1.86
COC(=O)[C@@H](C)C[C@H](Cc1ccccc1)NC(=O)c1nc([C@@H](C[C@H](C(C)C)N(C)C(=O)[C@@H](NC(=O)[C@H]2CCCCN2C)C(C)C)OC(C)=O)sc1C	-2.09
CCC12C[N+]3([O-])CCc4c([nH]c5ccccc45)C(C(=O)OC)(c4cc5c(cc4OC)N(C)C4C(O)(C(=O)OC)C(OC(C)=O)C6(CC)C=CCN7CCC54C76)CC(C3)C1O2 (centres undefined)	-0.09
CC1SC(c2c(Cl)cccc2Cl)N(NC(=O)c2[nH]c3ccc(F)cc3c2-c2ccccc2)C1=O (centres undefined)	1.08
CCC1=CCC23C(=O)C=CC(=O)C2(C1)C(=O)c1cccc(OC)c1C3=O (centres undefined)	1.52
CCN1C(=O)N(CC)C2C1NN=c1s/c(=C\c3cccnc3)c(=O)n12 (centres undefined)	0.40
O=c1cc(/C=C/c2ccc(O)c(O)c2)oc(/C=C/c2ccc(O)c(O)c2)c1	0.83
Cc1cc(C)c2c(=O)n(CN3CC4Nc5ccccc5C4C3)sc2n1 (centres undefined)	1.60
